Reference for the values: patent US10947242B2

assayed.target: PDE2A (Rattus norvegicus, UniProt Q01062)
Construct: Twenty μm-thick striatal sections were cut; from tissue; host or cells: rat brain, striatal sections
Sequence (Q01062 1-928): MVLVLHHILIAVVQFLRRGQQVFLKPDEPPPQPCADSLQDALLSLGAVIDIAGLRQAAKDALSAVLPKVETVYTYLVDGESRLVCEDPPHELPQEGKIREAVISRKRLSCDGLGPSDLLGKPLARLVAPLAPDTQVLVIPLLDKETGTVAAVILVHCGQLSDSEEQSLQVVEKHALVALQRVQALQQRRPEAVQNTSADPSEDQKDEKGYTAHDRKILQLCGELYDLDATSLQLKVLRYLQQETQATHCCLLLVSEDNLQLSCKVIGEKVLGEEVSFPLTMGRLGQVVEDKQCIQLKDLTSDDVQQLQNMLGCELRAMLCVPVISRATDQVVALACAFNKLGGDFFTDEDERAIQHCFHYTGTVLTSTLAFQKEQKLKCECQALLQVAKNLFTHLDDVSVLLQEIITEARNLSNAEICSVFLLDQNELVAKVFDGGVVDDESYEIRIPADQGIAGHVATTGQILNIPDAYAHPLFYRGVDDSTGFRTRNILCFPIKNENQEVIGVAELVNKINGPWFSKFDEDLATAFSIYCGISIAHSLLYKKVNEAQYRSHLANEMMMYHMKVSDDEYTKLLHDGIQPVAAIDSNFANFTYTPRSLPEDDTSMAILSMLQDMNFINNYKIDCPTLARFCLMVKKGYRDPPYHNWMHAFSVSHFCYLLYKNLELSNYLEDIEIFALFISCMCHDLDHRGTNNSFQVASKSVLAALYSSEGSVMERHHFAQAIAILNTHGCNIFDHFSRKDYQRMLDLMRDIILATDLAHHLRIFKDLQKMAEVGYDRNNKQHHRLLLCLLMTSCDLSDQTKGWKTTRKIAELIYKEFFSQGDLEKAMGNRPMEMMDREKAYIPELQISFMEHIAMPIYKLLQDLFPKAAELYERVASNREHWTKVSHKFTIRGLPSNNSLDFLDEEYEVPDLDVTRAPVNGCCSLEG
assay.remarks: PDE2 occupancy by test compounds, ex-vivo autoradiography with [3H]B-17a
Format: in vivo, Male Wistar rats
applied.conditions: po, 10 mg/kg, route PO (oral), percentage receptor occupancy, ex-vivo autoradiography, striatum
property: receptor occupancy at 10 mg/kg (%)

1) Cc1cc(C(=O)N2CC[C@@H](C)[C@H](c3cc(C(F)F)nc4ncnn34)C2)cc(F)c1F [Compound 189] ... 9
2) Cc1cc([C@@H]2CN(C(=O)c3ccc4occc4c3)CC[C@H]2C)n2ncnc2n1 [Compound 6] ... 67
3) COc1cc(C(=O)N2CC[C@@H](C)[C@H](c3cc(C(F)F)nc4ncnn34)C2)ccc1F [Compound 195] ... -7
4) C[C@@H]1CCN(C(=O)c2ccc3c(c2)OCCC3)C[C@H]1c1cc(C(F)F)nc2ncnn12 [Compound 96] ... 1
5) Cc1cc(C(=O)N2CC[C@@H](C)[C@H](c3cc(C(F)F)nc4ncnn34)C2)c(F)c(OC2CC2)n1 [Compound 392] ... 46
6) C[C@@H]1CCN(C(=O)c2cc(Cl)cnc2C(F)(F)F)C[C@H]1c1cc(C(F)F)nc2ncnn12 [Compound 39] ... -8

I. C[C@@H]1CCN(C(=O)c2cc(C3CC3)ncc2F)C[C@H]1c1cc(C(F)F)nc2ncnn12 [Compound 269]
II. C[C@@H]1CCN(C(=O)c2cc3ccccc3o2)C[C@H]1c1cc(C(F)F)nc2ncnn12 [Compound 69]
Prompt: // pick larger receptor occupancy at 10 mg/kg from pair: I vs II In your reply, give the label of the chosen option.
Response: I

I. C[C@@H]1CCN(C(=O)c2ccc(F)c(OC(F)F)c2)C[C@H]1c1cc(C(F)F)nc2ncnn12 [Compound 193]
II. Cc1nc2cccc(C(=O)N3CC[C@@H](C)[C@H](c4cc(C(F)F)nc5ncnn45)C3)c2o1 [Compound 50]
Prompt: Smaller receptor occupancy at 10 mg/kg value, I vs II ? In your reply, give the label of the chosen option.
Response: II

P. Cc1cc([C@@H]2CN(C(=O)c3cc(C4CC4)ncc3Cl)CC[C@H]2C)n2ncnc2n1 [Compound 391]
Q. Cc1cc(C(=O)N2CC[C@@H](C)[C@H](c3cc(C(F)F)nc4ncnn34)C2)c(C)cn1 [Compound 32]
R. Cc1cc([C@@H]2CN(C(=O)c3ccc4nccn4c3)CC[C@H]2C)n2ncnc2n1 [Compound 99]
S. C[C@@H]1CCN(C(=O)c2ccc(OC(F)F)c(F)c2)C[C@H]1c1cc(C(F)F)nc2ncnn12 [Compound 192]
T. COc1c(C)cc(C(=O)N2CC[C@@H](C)[C@H](c3cc(C(F)F)nc4ncnn34)C2)cc1C [Compound 77]
Prompt: Please put the entries in order of rising receptor occupancy at 10 mg/kg. Form entry: ranked labels (order as requested).
Response: S, Q, R, P, T

P. Cc1ccc2cc(C(=O)N3CC[C@@H](C)[C@H](c4cc(C(F)F)nc5ncnn45)C3)c(C)nc2c1 [Compound 60]
Q. C[C@@H]1CCN(C(=O)c2ccc(Cl)c(C3CC3)c2)C[C@H]1c1cc(C(F)F)nc2ncnn12 [Compound 72]
Prompt: // pick larger receptor occupancy at 10 mg/kg from pair: P vs Q In your reply, give the label of the chosen option.
Response: P
(P: 32%, Q: 0%)
